Target: T1, NY-ESO-1 peptide on HLA-A*02:01 (human)
T1 peptide: SLLMWITQC
Experiment: multimer staining
reported endpoint: binding result

{"columns": ["binder", "binding result"],
 "data": [
  ["TCR0010 (TCR, V domains shown) Valpha: QSVAQPEDQVNVAEGNPLTVKCTYSVSGNPYLFWYVQYPNRGLQFLLKYITGDNLVKGSYGFEAEFNKSQTSFHLKKPSALVSDSALYFCAVRDSFEGAGSYQLTFGKGTKLSVIP Vbeta: QKPSRDICQRGTSLTIQCQVDSQVTMMFWYRQQPGQSLTLIATANQGSEATYESGFVIDKFPISRPNLTFSTLTVSNMSPEDSSIYLCSVGGAGVTDTQYFGPGTRLTVL", "recognises"],
  ["TCR0062 (TCR, V domains shown) Valpha: QSVAQPEDQVNVAEGNPLTVKCTYSVSGNPYLFWYVQYPNRGLQFLLKYITGDNLVKGSYGFEAEFNKSQTSFHLKKPSALVSDSALYFCAVRELYSTTFGWQLTFGKGTKLSVIP Vbeta: QKPSRDICQRGTSLTIQCQVDSQVTMMFWYRQQPGQSLTLIATANQGSEATYESGFVIDKFPISRPNLTFSTLTVSNMSPEDSSIYLCSVGGAGVTDTQYFGPGTRLTVL", "recognises"],
  ["TCR0036 (TCR, V domains shown) Valpha: QSVAQPEDQVNVAEGNPLTVKCTYSVSGNPYLFWYVQYPNRGLQFLLKYITGDNLVKGSYGFEAEFNKSQTSFHLKKPSALVSDSALYFCAVRDLTTGAGSYQLTFGKGTKLSVIP Vbeta: QKPSRDICQRGTSLTIQCQVDSQVTMMFWYRQQPGQSLTLIATANQGSEATYESGFVIDKFPISRPNLTFSTLTVSNMSPEDSSIYLCSVGGAGVTDTQYFGPGTRLTVL", "recognises"],
  ["TCR0024 (TCR, V domains shown) Valpha: QSVAQPEDQVNVAEGNPLTVKCTYSVSGNPYLFWYVQYPNRGLQFLLKYITGDNLVKGSYGFEAEFNKSQTSFHLKKPSALVSDSALYFCAVRDQALGAGSYQLTFGKGTKLSVIP Vbeta: QKPSRDICQRGTSLTIQCQVDSQVTMMFWYRQQPGQSLTLIATANQGSEATYESGFVIDKFPISRPNLTFSTLTVSNMSPEDSSIYLCSVGGAGVTDTQYFGPGTRLTVL", "recognises"]
]}

Pending binder:
Kindly indicate its recorded binding result. Item: TCR0066 (TCR, V domains shown) Valpha: QSVAQPEDQVNVAEGNPLTVKCTYSVSGNPYLFWYVQYPNRGLQFLLKYITGDNLVKGSYGFEAEFNKSQTSFHLKKPSALVSDSALYFCAVRELYSALVTYQLTFGKGTKLSVIP Vbeta: QKPSRDICQRGTSLTIQCQVDSQVTMMFWYRQQPGQSLTLIATANQGSEATYESGFVIDKFPISRPNLTFSTLTVSNMSPEDSSIYLCSVGGAGVTDTQYFGPGTRLTVL
recognises

All values here come from patent US20200040358A1.
